System: MDA-MB-468 cells
Assay: CellTiter-Glo in vitro cell proliferation assay, Example 8
Format: cell-based, Human
Conditions: MDA-MB-468, TNBC; read-out: Mean IC50
# IC50 values compiled below
Give the number; µM is assumed, so skip it.

// known answers, use as guide
[[record]]
given_smiles = "COc1ccc2c3c([nH]c2c1)C(CC(CC1=NCCc2c1[nH]c1cc(OC)ccc21)c1ccc(OC)c(O)c1)=NCC3"
numeric_readout = 11.2

[[record]]
given_smiles = "CCOc1cc(C(CC2=NCCc3c2[nH]c2cc(OC)ccc32)CC2=NCCc3c2[nH]c2cc(OC)ccc32)ccc1O"
numeric_readout = 9.9

[[record]]
given_smiles = "COc1ccc2c3c([nH]c2c1)C(CC(CC1=NCCc2c1[nH]c1cc(OC)ccc21)c1cc(Cl)c(O)c(OC)c1)=NCC3"
numeric_readout = 12.7

[[record]]
given_smiles = "COc1ccc2c3c([nH]c2c1)C(CC(CC1=NCCc2c1[nH]c1cc(OC)ccc21)c1ccc(F)cc1)=NCC3"
numeric_readout = 6.74

[[record]]
given_smiles = "COc1ccc2c3c([nH]c2c1)C(CC(CC1=NCCc2c1[nH]c1cc(OC)ccc21)c1cccc(F)c1)=NCC3"
numeric_readout = 5.12

[[record]]
given_smiles = "COc1ccc2c3c([nH]c2c1)C(CC(CC1=NCCc2c1[nH]c1cc(OC)ccc21)c1ccccc1OC)=NCC3"
numeric_readout = 4.39


We now examine a further compound.
Looking up `COc1ccc2c3c([nH]c2c1)C(CC(CC1=NCCc2c1[nH]c1cc(OC)ccc21)c1ccc(OC(C)=O)c(OC)c1)=NCC3` , I see its IC50 listed as 14.5

###

# IC50 values compiled below
System: H1975 (EGFR mut) cells
Assay: CellTiter-Glo in vitro cell proliferation assay, Example 8
Type: cell-based, Human
Details: NSCLC, read-out: Mean IC50
Give the number; µM is assumed, so skip it.

[[record]]
compound = "COc1ccc2c3c([nH]c2c1)C(CC(CC1=NCCc2c1[nH]c1cc(OC)ccc21)c1cc(F)c(F)cc1F)=NCC3 [compound 23]"
target_entity = "H1975 (EGFR mut) cells"
numeric_readout = 8.23

[[record]]
compound = "COc1ccc2c3c([nH]c2c1)C(CC(CC1=NCCc2c1[nH]c1cc(OC)ccc21)c1ccc(Cl)cc1)=NCC3 [compound 27]"
target_entity = "H1975 (EGFR mut) cells"
numeric_readout = 11.5

[[record]]
compound = "COc1ccc2c3c([nH]c2c1)C(CC(CC1=NCCc2c1[nH]c1cc(OC)ccc21)c1ccc(F)cc1)=NCC3 [compound 21]"
target_entity = "H1975 (EGFR mut) cells"
numeric_readout = 11.4


We now examine a further compound.
Looking up COc1ccc2c3c([nH]c2c1)C(CC(CC1=NCCc2c1[nH]c1cc(OC)ccc21)c1ccccc1OC)=NCC3 [compound 1] , I see its IC50 listed as 6.54

###

Test system: MDA-MB-468 cells
Experiment: CellTiter-Glo in vitro cell proliferation assay, Example 8
Type: cell-based, Human
Settings: MDA-MB-468, TNBC; read-out: Mean IC50
Readout Label: pIC50
// returns pIC50 (minus log10 of molar concentration), number only

// known answers, use as guide
[[record]]
given_smiles = "COc1ccc2c3c([nH]c2c1)C(CC(CC1=NCCc2c1[nH]c1cc(OC)ccc21)c1cc(F)cc(F)c1)=NCC3"
numeric_readout = 4.94

[[record]]
given_smiles = "COc1cccc(C(CC2=NCCc3c2[nH]c2cc(OC)ccc32)CC2=NCCc3c2[nH]c2cc(OC)ccc32)c1"
numeric_readout = 5.17

[[record]]
given_smiles = "COc1ccc2c3c([nH]c2c1)C(CC(CC1=NCCc2c1[nH]c1cc(OC)ccc21)c1ccc(Cl)cc1)=NCC3"
numeric_readout = 4.97


We now examine a further compound.
Entry `COc1ccc(C(CC2=NCCc3c2[nH]c2cc(OC)ccc32)CC2=NCCc3c2[nH]c2cc(OC)ccc32)c(O)c1` , tested on MDA-MB-468 cells, has a reported pIC50 of 5.07
